measuredTarget: small-conductance Ca2+-activated K+ channels (SK channels, subtype 2) (Homo sapiens)
Construct: expressed in transfected cells; host or cells: HEK293
measurementNotes: whole-cell patch-clamp of ionic current through SK2 channels in HEK293 cells (SC100)
Type: cell-based
conditionSummary: whole-cell patch-clamp, HEK293 cells expressing SK2 channels; concentration that increases the basal current by 100%
testReadout: SC100 (μM)

Field: example entries. Status: answers known.
# compound, testReadout, measurement
rows = [
    ("Cc1cc(NC2CCC(F)(F)CC2)nc(-n2ccc(OC(C)C)n2)n1 [IN11133-094-P1]", "SC100 (μM)", "+ (+ means >1 uM)"),
    ("COC(C)c1cc(-n2nc(C)cc2C)nc(NC2CCC(F)(F)CC2)n1 (stereo not drawn) [NSSy6612]", "SC100 (μM)", "+ (+ means >1 uM)"),
    ("Cc1cc(NC2CCC(F)(F)CC2)nc(-n2ccc(C3(O)CC3)n2)n1 [IN11251-011-P1]", "SC100 (μM)", "+ (+ means >1 uM)"),
    ("COc1cc(NC2CCCSC2)nc(-c2nc(C)cs2)n1 (stereo not drawn) [IN11137-018-P1]", "SC100 (μM)", "+ (+ means >1 uM)"),
    ("Cc1csc(-c2cc(N3CC4(COC4)C3)cc(NC3CCC(F)(F)CC3)n2)n1 [NSSy5675]", "SC100 (μM)", "+++ (+++ means <200 nM)"),
]

input: Query (compound): COC(=O)N1CC(Oc2cc(NC3CCCCC3)nc(-c3csc(C)n3)n2)C1 [NSSy6133] ; field requested: SC100 (μM)
output: + (+ means >1 uM)

input: Query (compound): Cc1csc(-c2nc(NC3CCCCC3=O)cc(N3CCOCC3)n2)n1 (stereo not drawn) [IN11140-065-P1] ; field requested: SC100 (μM)
output: + (+ means >1 uM)

input: Query (compound): Cc1ccn(-c2cc(N3CC4CCCC4C3)nc(NC3CCC(F)(F)CC3)n2)n1 (stereo not drawn) [NSSy6584] ; field requested: SC100 (μM)
output: + (+ means >1 uM)

input: Query (compound): Cc1ccn(-c2nc(NC3CCC(F)(F)CC3)cc(C(C)(F)F)n2)n1 [IN10876-069-P1] ; field requested: SC100 (μM)
output: + (+ means >1 uM)

input: Query (compound): Cc1cc(C)n(-c2cc(N3C[C@@H]4C[C@H]3CO4)nc(NC3CCC(F)(F)CC3)n2)n1 [NSSy6639] ; field requested: SC100 (μM)
output: + (+ means >1 uM)

input: Query (compound): CC(=O)c1cc(NC2CCC(F)(F)CC2)nc(-n2ccc(C(F)(F)F)n2)n1 [IN11053-059-P1] ; field requested: SC100 (μM)
output: + (+ means >1 uM)

input: Query (compound): COC[C@H]1CN(c2cc(NC3CCC(F)(F)CC3)nc(-c3nc(C)cs3)n2)CCO1 [NSSy5796] ; field requested: SC100 (μM)
output: +++ (+++ means <200 nM)

---

measuredTarget: small-conductance Ca2+-activated K+ channels (SK channels, subtype 2) (Homo sapiens, UniProt Q9H2S1)
Construct: expressed in transfected cells; host or cells: HEK293
measurementNotes: whole-cell patch-clamp of ionic current through SK2 channels in HEK293 cells (SC100)
Type: cell-based
conditionSummary: whole-cell patch-clamp, HEK293 cells expressing SK2 channels; concentration that increases the basal current by 100%

# compound, SC100 (μM)
measured = [
    ("Cc1csc(-c2nc(NC3CCC(F)(F)CC3)cc(N3CCS(=O)(=O)CC3)n2)n1", "+++ (+++ means <200 nM)"),
    ("Cc1csc(-c2nc(NC3CCC(F)(F)CC3)cc(N3CCOC(C)(C)C3)n2)n1 [IN10864-043-P1]", "+++ (+++ means <200 nM)"),
    ("CCOc1cc(NC2CCC(F)(F)CC2)nc(-c2nc(C)cs2)n1 [IN11055-015-P1]", "+ (+ means >1 uM)"),
    ("CC(=O)c1ccn(-c2nc(NC3CCC(F)(F)CC3)cc(N3CCOCC3)n2)n1 [IN11243-031-P1]", "+ (+ means >1 uM)"),
]
